Would you mind telling me the reported Ki of each entry?
assayed_target: JAK1 (Homo sapiens, UniProt P23458)
Construct: made in house; host or cells: SF9 insect cells (baculovirus)
Sequence (P23458 852-1154): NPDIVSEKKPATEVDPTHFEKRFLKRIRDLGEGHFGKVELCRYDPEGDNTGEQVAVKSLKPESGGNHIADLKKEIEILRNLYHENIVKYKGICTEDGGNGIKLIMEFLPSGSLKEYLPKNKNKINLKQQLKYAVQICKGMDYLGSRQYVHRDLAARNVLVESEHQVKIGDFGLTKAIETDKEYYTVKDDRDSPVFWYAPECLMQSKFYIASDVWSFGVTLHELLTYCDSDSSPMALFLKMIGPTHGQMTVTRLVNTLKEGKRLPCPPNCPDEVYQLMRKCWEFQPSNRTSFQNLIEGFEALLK
procedure_summary: JAK1 inhibition (Table 4)
Format: biochemical
test_conditions: read-out: JAK1 Ki
For clarity, give the value followed by its unit.

Bench note: what Ki did "Cc1nc(CN2CCC(n3c([C@@H](C)O)nc4cnc5[nH]ccc5c43)CC2)c(C)o1" show?
33.9 nM

GET /values?readout=Ki&item= N#CCCN1CCC(n2c(CC3CCCOC3)nc3cnc4[nH]ccc4c32)CC1 (racemic)
26.2 nM

Name the reported Ki value associated with the compound CC(O)c1nc2cnc3[nH]ccc3c2n1C1CCN(Cc2cnco2)CC1F (stereo not shown)
1.84 nM

Look up Ki: "OC[C@H]1CC[C@H](n2cnc3cnc4[nH]ccc4c32)CC1"
0.85 nM

What value of Ki has been reported for the following compound? "C[C@@H](O)c1nc2cnc3[nH]ccc3c2n1N1CCCCC1"
3.56 nM

Which Ki value belongs to Cc1nc2cnc3[nH]ccc3c2n1C1CCC(NC(=O)CC#N)C1 (racemic) ?
1.52 nM

I'd like to know its Ki. The compound in question is "N#CCCN1CCC(n2c(Cn3cccn3)nc3cnc4[nH]ccc4c32)CC1"
6.42 nM

Which Ki value belongs to "CC(C)(C)OC(=O)N1CCC(n2c(NCCO)nc3cnc4[nH]ccc4c32)CC1" ?
453 nM

Bench note: what Ki did "CC(C)c1nc2cnc3[nH]ccc3c2n1C1CCNCC1" show?
25.3 nM

What value of Ki has been reported for the following compound? "O=C(Cc1nc2cnc3[nH]ccc3c2n1C1CCN(Cc2ccccc2)CC1)N1CC(F)C1"
28.8 nM

Which measured Ki value corresponds to "O=S(=O)(c1cccnc1)N1CCC(n2cnc3cnc4[nH]ccc4c32)CC1" ?
8.98 nM

# lookup: Ki of "CN1CCN(S(=O)(=O)NCCc2nc3cnc4[nH]ccc4c3n2C2CCCCC2)CC1"
5.3 nM

Reported Ki for "c1coc(CN2CCC[C@@H](n3cnc4cnc5[nH]ccc5c43)C2)n1" : what is it?
43.1 nM

What does the data say about its Ki? Entry: CC(CC#N)N1CCC(n2c(CS(C)(=O)=O)nc3cnc4[nH]ccc4c32)CC1 (racemic)
15.5 nM

Look up Ki: "CC(C)Cc1nc2cnc3[nH]ccc3c2n1C1CCN(Cc2ccccc2)CC1"
14.2 nM

// returns reported Ki for input "C[C@@H](O)c1nc2cnc3[nH]ccc3c2n1[C@@H]1CCCN(C(=O)CC2CC2)C1"
82.4 nM

Would you kindly share the measured Ki for C[C@@H](O)c1nc2cnc3[nH]ccc3c2n1C1CCC(CS(C)(=O)=O)CC1 (mixture of isomers) ?
4.82 nM

What value of measured Ki is listed for O=C1CC(n2cnc3cnc4[nH]ccc4c32)CCN1 (racemic) ?
54.2 nM

Please look up its Ki: "C[C@H](O)c1nc2cnc3[nH]ccc3c2n1[C@@H]1CCCN(C(=O)CC#N)C1"
26.2 nM

Returns the measured Ki for the input compound. Input: CN(CC(F)(F)F)C(=O)NC1CCC(n2cnc3cnc4[nH]ccc4c32)C1 (racemic)
4.53 nM

// returns reported Ki for input "Cc1nc2cnc3[nH]ccc3c2n1C1CCN(CC(F)(F)F)CC1"
0.61 nM

Requested read-out: Ki. Entry: "O=S(=O)(Cc1ccccc1)N1CC[C@@H](n2cnc3cnc4[nH]ccc4c32)C1"
32.1 nM

Would you mind telling me what Ki value was observed for Cc1nc2cnc3[nH]ccc3c2n1C1CCN(CC(C)O)CC1 (stereo not shown) ?
15.9 nM

Reported Ki for "Cc1nc2cnc3[nH]ccc3c2n1[C@H]1CC[C@H](NCC(F)(F)F)CC1" : what is it?
0.64 nM

// returns reported Ki for input "CC(C)(O)CN1CC[C@@H](n2cnc3cnc4[nH]ccc4c32)C1"
105 nM

For the compound "OCc1nc2cnc3[nH]ccc3c2n1C1CCN(Cc2cccnc2)CC1" , what Ki is on record?
1.52 nM

Recorded Ki for OCC(O)c1nc2cnc3[nH]ccc3c2n1C1CCCCC1 (racemic) , please?
1.98 nM

Consider the compound shown here: Cc1nc2cnc3[nH]ccc3c2n1C1CCC(NCCC#N)C1 (racemic) What is its recorded Ki?
1.36 nM

====

assayed_target: JAK3 (Homo sapiens, UniProt P52333)
Construct: made in house; host or cells: SF9 insect cells (baculovirus)
Sequence (P52333 783-1124): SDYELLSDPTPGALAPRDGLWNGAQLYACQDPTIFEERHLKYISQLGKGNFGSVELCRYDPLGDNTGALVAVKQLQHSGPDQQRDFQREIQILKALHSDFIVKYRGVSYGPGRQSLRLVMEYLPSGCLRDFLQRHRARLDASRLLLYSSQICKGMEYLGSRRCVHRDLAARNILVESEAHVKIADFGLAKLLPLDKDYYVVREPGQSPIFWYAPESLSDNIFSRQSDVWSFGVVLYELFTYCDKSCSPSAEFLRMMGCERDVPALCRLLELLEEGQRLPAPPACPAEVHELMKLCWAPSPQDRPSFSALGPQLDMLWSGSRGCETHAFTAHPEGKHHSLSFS
procedure_summary: JAK3 inhibition (Table 4)
Type: biochemical
test_conditions: read-out: JAK3 Ki
hey, just use Criterion met if measured Ki is less than 200 nM, otherwise Criterion not met

Item OC1CCCC(n2cnc3cnc4[nH]ccc4c32)C1 (single isomer, unassigned) [Example 560] : Ki beneath 200 nM, strictly?
Criterion met

Determine if CC1CN(CCC#N)CCC1n1cnc2cnc3[nH]ccc3c21 (racemic) [Example 323] shows Ki strictly lower than 200 nM.
Criterion met

Is it true that Ki reported for Cc1nc2cnc3[nH]ccc3c2n1C1CCN(C2COC2)CC1 [Example 363] is less than 200 nM?
Criterion met

In plain terms, does c1ccc(CN2CCC(n3c(C4CCOCC4)nc4cnc5[nH]ccc5c43)CC2)cc1 [Example 154] come in under 200 nM for Ki?
Criterion met

Take the compound c1cc2c(ncc3nc(C4CCCN4)n(C4CCCOC4)c32)[nH]1 (single isomer, unassigned) [Example 666] and say whether its Ki is less than 200 nM.
Criterion not met

Given the entry COCCNC(=O)N(C)[C@H]1CC[C@H](n2cnc3cnc4[nH]ccc4c32)CC1 [Example 592] , would its reported Ki be below 200 nM?
Criterion not met

# check: Ki < 200 nM for C[C@@H](O)c1nc2cnc3[nH]ccc3c2n1C1CCC(n2cncn2)CC1 (some centres unmarked) [Example 779]
Criterion not met

Consider C[C@@H](O)c1nc2cnc3[nH]ccc3c2n1C1CCN(CCF)CC1 [Example 873] . Does its Ki lie strictly below 200 nM?
Criterion met

Is 200 nM strictly greater than the compound's reported Ki? compound: O=C(Cc1nc2cnc3[nH]ccc3c2n1C1CCCOC1)N1CCCC(O)C1 (racemic) [Example 982]
Criterion met

Is Ki of N#CCCN1CCC(n2c(COCC3CCC3)nc3cnc4[nH]ccc4c32)CC1 [Example 840] strictly below 200 nM?
Criterion met

Ki under 200 nM? Item: COC(=O)NC1CCC(n2nnc3cnc4[nH]ccc4c32)C1 (racemic) [Example 621]
Criterion met

Just wondering, is Ki of O=C(N[C@H]1CC[C@H](n2cnc3cnc4[nH]ccc4c32)CC1)N1CCOCC1 [Example 593] below 200 nM?
Criterion not met

Consider CC(C)(C)[S+]([O-])NCc1nc2cnc3[nH]ccc3c2n1C1CCCCC1 (centres unmarked) [Example 690] . Does its Ki lie strictly below 200 nM?
Criterion not met

Please check: Ki for CC(=O)N1CC[C@@H](n2cnc3cnc4[nH]ccc4c32)C1 [Example 188] , strictly under 200 nM or not?
Criterion not met

# TODO verify Ki < 200 nM strictly for this compound: Cc1noc(C)c1S(=O)(=O)N1CCC(n2cnc3cnc4[nH]ccc4c32)CC1 [Example 447]
Criterion not met

# TODO verify Ki < 200 nM strictly for this compound: c1cc2c(ncc3ncn([C@@H]4CCCN(Cc5cocn5)C4)c32)[nH]1 [Example 8]
Criterion met

Is Ki strictly under 200 nM for the entry CCS(=O)(=O)NCCc1nc2cnc3[nH]ccc3c2n1C1CCCCC1 [Example 512] ?
Criterion met

For Cc1nccn1Cc1nc2cnc3[nH]ccc3c2n1C1CCN(CCC#N)CC1 [Example 402] , is the recorded Ki below the cut-off of 200 nM?
Criterion met

Consider COCC(=O)NC1CCCC(n2cnc3cnc4[nH]ccc4c32)C1 (single isomer, unassigned) [Example 483] . Does its Ki lie strictly below 200 nM?
Criterion not met

Is the reported Ki for N#CCCN1CCC(n2c(CC3CCOCC3)nc3cnc4[nH]ccc4c32)CC1 [Example 812] strictly below 200 nM?
Criterion met

====

assayed_target: JAK1 (Homo sapiens, UniProt P23458)
Construct: made in house; host or cells: SF9 insect cells (baculovirus)
procedure_summary: JAK1 inhibition (Table 4)
Type: biochemical
test_conditions: read-out: JAK1 Ki
Hi! Could you tag entries with Ki below 20 nM as condition met, and those at or above as condition not met? Much appreciated.

Given the entry "CC(C)(C#N)C(=O)N1CCC(n2cnc3cnc4[nH]ccc4c32)CC1" , would its reported Ki be below 20 nM?
condition not met

Below 20 nM on Ki? Entry "CC(C)S(=O)(=O)NCc1nc2cnc3[nH]ccc3c2n1C1CCN(CCC#N)CC1"
condition met

Is the reported Ki for "CC(C)n1cc(CN2CCC(n3c([C@@H](C)O)nc4cnc5[nH]ccc5c43)CC2)cn1" strictly below 20 nM?
condition not met

Please state whether Ki is below 20 nM for "Cc1nc2cnc3[nH]ccc3c2n1[C@@H]1CC[C@@H](NC(=O)OC(C)(C)C)C1"
condition met

Is it true that Ki reported for "C[C@H](O)c1nc2cnc3[nH]ccc3c2n1[C@@H]1CCCN(C(=O)CC(F)(F)F)C1" is less than 20 nM?
condition not met

Could you please tell me whether Ki recorded for "c1cc(N2CCC[C@@H](n3cnc4cnc5[nH]ccc5c43)C2)ncn1" is less than 20 nM?
condition met

Does the reported Ki of "N#CCCN1CCC(n2c(CNCC(F)(F)F)nc3cnc4[nH]ccc4c32)CC1" stay below 20 nM?
condition not met

Could you please tell me whether Ki recorded for CCN1CCC(n2c(CCNC(=O)OC)nc3cnc4[nH]ccc4c32)C(F)(F)C1 (stereo not drawn) is less than 20 nM?
condition met

Is Ki of "Cn1cncc1CN[C@H]1CC[C@H](n2cnc3cnc4[nH]ccc4c32)CC1" strictly below 20 nM?
condition met

Determine if "Cc1nc2cnc3[nH]ccc3c2n1[C@@H]1CCCN(Cc2ccccc2)C1" shows Ki strictly lower than 20 nM.
condition not met

Determine if "N#CCCN1CCC(n2c(COC3CCCC3)nc3cnc4[nH]ccc4c32)CC1" shows Ki strictly lower than 20 nM.
condition not met

Is Ki strictly under 20 nM for the entry Cc1nc2cnc3[nH]ccc3c2n1C1CCC(NCC(F)(F)F)C1 (racemic) ?
condition met

Ki strictly < 20 nM for this molecule? CNC(=O)Cc1nc2cnc3[nH]ccc3c2n1C1CCCOC1 (racemic)
condition not met

Strictly below 20 nM in Ki? O=C(Cc1nc2cnc3[nH]ccc3c2n1C1CCCOC1)N1CCCOCC1 (racemic)
condition not met

For "Cc1nc2cnc3[nH]ccc3c2n1C1CCN(C(=O)[C@@H]2CCCN2C)CC1" , is the recorded Ki below the cut-off of 20 nM?
condition not met
